pKi: −log10 of the molar value.
Recorded pKi values (Prothrombin (Homo sapiens)) are given below.

Which pKi value belongs to O=C(CCCCCn1ccnc1)N1CCN(C(=O)O[C@H]2CCC[C@@H](OC(=O)N3CCN(C(=O)CCCCCn4ccnc4)CC3)CCC2)CC1 ?
< 3.00

Recorded pKi for N=C(N)Nc1ccc(CNC(=O)N2CCN(C(=O)CCCCCCCCC(=O)N3CCN(C(=O)NCc4ccc(NC(=N)N)cc4)CC3)CC2)cc1 , please?
< 3.00

Which pKi is listed for NCCCCNC(=O)N1CCN(C(=O)O[C@H]2CCC[C@@H](OC(=O)N3CCN(C(=O)NCCCCN)CC3)CCC2)CC1 ?
< 3.00
